Origin of the recorded values: ChEMBL document CHEMBL1201862

# System: OVCAR-3
# method: NCI tumour cell line growth inhibition, 48 h
Calls of active or inactive are those of the source. No stated cut-off is given here; in the data, active = GI50 up to about 1.1 µM and inactive = higher.
Bench note: report the call from active, inactive

compound | system | qualitative_label
CCN(CC)CCO/N=C1/C=C2CCC3C(CC[C@@]4(C)C3CC[C@]4(C)O)[C@@]2(C)CC1 (stereo not given in full) | OVCAR-3 | inactive
Sc1nnc(COc2ccc(Cl)cc2Cl)[nH]1 | OVCAR-3 | inactive
C1CCC2C(C1)CCCC2NC1=NCCO1 (stereo not given) | OVCAR-3 | inactive
CC(C(=O)O)/C(=C\c1ccc2c(c1)OCO2)C(=O)O (stereo not given) | OVCAR-3 | inactive
c1ccc(C2OCC(OC3CCCCO3)CO2)cc1 (stereo not given) | OVCAR-3 | inactive
CC(C)[C@@H]1NC(=O)[C@@H]2N=C(O[C@H]2C)[C@H](C(C)C)NC(=O)C2N=C1O[C@H]2C | OVCAR-3 | inactive

INPUT: Test call, this compound: "C[N+]1(C)C/C(=C\c2ccccc2)C(=O)/C(=C/c2ccccc2)C1"
OUTPUT: inactive

INPUT: Test call, this compound: "FC(F)(F)c1ccccc1N1CCN(c2nc(-c3cccs3)nc3ccc(Br)cc23)CC1"
OUTPUT: inactive

INPUT: Test call, this compound: N=C(N)c1ccc(C(NC(=O)CNS(=O)(=O)c2ccc3ccccc3c2)P(=O)(Oc2ccccc2)Oc2ccccc2)cc1 (stereo not given)
OUTPUT: inactive

INPUT: Test call, this compound: "CCOP(=O)(OCC)/C(=C/n1c(=S)[nH]c2ccccc21)C(=O)OC"
OUTPUT: active

====

# Test system: LXFL 529
# method: NCI tumour cell line growth inhibition, 48 h
Active and inactive are the calls of the source. Rule as the data show it: active = GI50 up to about 1.1 µM and inactive = higher.
Bench note: report the call from class 1 for active, class 0 for inactive

These solved cases illustrate the format of a correct answer.
molecule | qualitative_label
O=[N+]([O-])c1nccn1CC(O)CN1CC1 (stereo unspecified) | class 0
OC(CCNC12CC3CC(CC(C3)C1)C2)c1ccccc1 (stereo unspecified) | class 0
COc1cc2c3c(c1OC)C1(C=CC(=O)C=C1)C[C@H]3N(C)CC2 | class 0
COc1cc(CNc2ccc(C(C)C)cc2)cc(OC)c1OC | class 0
O=S(=O)(O)c1ccc([Se][Se]c2ccc(S(=O)(=O)O)cc2)cc1 | class 0
O=C1OC(c2ccccc2)=N/C1=C/NC(Cc1ccc(O)cc1)C(=O)O (stereo unspecified) | class 0
CC(=O)OCC1OC(NC(=S)N/N=C2\CC(c3ccccc3)Oc3ccccc32)C(OC(C)=O)C(OC(C)=O)C1OC(C)=O (stereo unspecified) | class 0
CC1OC(=O)N2CCC=CC12 (stereo unspecified) | class 0

INPUT: Test call, this molecule: COc1cc(C2C(Cl)C(=O)N2n2cnc3ccccc3c2=O)cc(OC)c1OC (stereo unspecified)
OUTPUT: class 0

INPUT: Test call, this molecule: "CCCCCCCC(=O)OC[C@H](C[As](=O)(O)O)OC(=O)CCCCCCC"
OUTPUT: class 0

INPUT: Test call, this molecule: "COc1ccc2nc(-c3ccc(O)cc3)cc(O)c2c1"
OUTPUT: class 1

INPUT: Test call, this molecule: "COC(=O)CCC(=O)Nc1ccc(Cl)cc1C"
OUTPUT: class 0

INPUT: Test call, this molecule: O=C(Nc1ccc(Cl)cc1Cl)C1C(=O)N(c2ccc(Cl)cc2Cl)C(=O)/C1=N\Nc1ccc([N+](=O)[O-])cc1[N+](=O)[O-] (stereo unspecified)
OUTPUT: class 0

INPUT: Test call, this molecule: "NNc1cnn(-c2ccccc2)c(=O)c1Cl"
OUTPUT: class 0

INPUT: Test call, this molecule: "COc1cccc(NC(=O)/C(CS(=O)(=O)CCC(C(C)=O)C(C)=O)=N/NC(C)(C)C)c1"
OUTPUT: class 0

INPUT: Test call, this molecule: "OC1=CN=C(C2CC2)Oc2ccccc21"
OUTPUT: class 0

INPUT: Test call, this molecule: Cc1cc(O)c(C=O)c(C)c1CCC1(C)C=Cc2cc(O)ccc2O1 (stereo unspecified)
OUTPUT: class 0

INPUT: Test call, this molecule: O=C1OC2CCCC[C@@H]2C2C[C@]34CCCCC3[C@@H](C(=O)O4)C12 (stereo partly specified)
OUTPUT: class 0

INPUT: Test call, this molecule: "CCCC(=O)c1ccc(=O)n(C)c1"
OUTPUT: class 0

INPUT: Test call, this molecule: O=C(O)C(Cc1ccccc1)N1C(=O)N/C(=C\c2ccc(F)cc2)C1=O (stereo unspecified)
OUTPUT: class 0

INPUT: Test call, this molecule: O=C(Nc1ccc(Cl)cc1Cl)C1C(=O)C(=O)N(c2ccc(Cl)cc2Cl)C1=O (stereo unspecified)
OUTPUT: class 0

====

# Test system: DMS-273
# method: NCI tumour cell line growth inhibition, 48 h
The source made the active and inactive calls. Rule as the data show it: active = GI50 up to about 1.1 µM and inactive = higher.
Task for the reader: assign each of the following compounds its reported GI50.

Record excerpt, results attached:
compound | system | val
C#CC1(O)CC(c2ccccc2)N(C)C(c2ccccc2)C1 (stereo unspecified) | DMS-273 | > 100 µM (inactive)
c1ccc2c(c1)[nH]c1c2nc2ncccn21 | DMS-273 | > 100 µM (inactive)
OC(CCNC12CC3CC(CC(C3)C1)C2)c1ccccc1 (stereo unspecified) | DMS-273 | 80.4 µM (inactive)
CC(=O)C1=C(O)C(N)C2Cc3c(c(O)c4c(O)c(C)ccc4c3C)C(=O)C2(O)C1=O (stereo unspecified) | DMS-273 | 1.73 µM (inactive)
O=C1OC(c2ccccc2)=N/C1=C/NC(Cc1ccc(O)cc1)C(=O)O (stereo unspecified) | DMS-273 | > 100 µM (inactive)

Kindly consider the entry below.
The compound listed as "CN(CCN(C)C(=O)CCn1ccc(=O)[nH]c1=O)C(=O)CCn1ccc(=O)[nH]c1=O" has a reported GI50 of > 100 µM (inactive)

====

# Tested on: LOX IMVI
# method: NCI tumour cell line growth inhibition, 48 h
The source made the active and inactive calls. Rule as the data show it: active = GI50 up to about 1.1 µM and inactive = higher.
Bench note: report the call from Y = active, N = inactive

These solved cases illustrate the format of a correct answer.
compound | system | qualitative_label
Nc1ncnn2c(C3OC(CO)C(O)C3O)ccc12 (stereo not given) | LOX IMVI | Y
O=C1CC(O)c2c(Br)sc(Br)c21 (stereo not given) | LOX IMVI | N
OC(c1ccccc1)C1CC2C=CC1C2 (stereo not given) | LOX IMVI | N
O=C(CC(=O)N1N=C(N2c3ccccc3Sc3ccccc32)CC1c1ccccc1)Nc1ccc(Cl)cc1 (stereo not given) | LOX IMVI | N
CSc1ccc2c(cc1=O)C(NC(=O)c1cc(O)c(OC(=O)O)c(O)c1)CCc1cc(O)c(O)c(O)c1-2 (stereo not given) | LOX IMVI | N

INPUT: Test call, this compound: COc1nc2c(c(=O)n1C)N(C(C)=O)C1C(N2)OCC(OC(C)=O)C1OC(C)=O (stereo not given)
OUTPUT: N

INPUT: Test call, this compound: "COc1ccc2c(c1)/C(=C(\C(Cl)=C(Cl)Cl)[N+](=O)[O-])N2"
OUTPUT: N

INPUT: Test call, this compound: COc1ccc(C(=O)/C=C/c2ccc(Oc3cc(C(=O)/C=C/c4ccc(O)cc4)c(O)cc3OC)cc2)c(O)c1 [RHUSCHALCONE I]
OUTPUT: N

INPUT: Test call, this compound: "CN(CCN(C)C(=O)CCn1ccc(=O)[nH]c1=O)C(=O)CCn1ccc(=O)[nH]c1=O"
OUTPUT: N

INPUT: Test call, this compound: "O/N=C1\CC2(N3CCOCC3)CCC1(c1ccccc1)CC2"
OUTPUT: N

====

# System: A498
# method: NCI tumour cell line growth inhibition, 48 h
Active and inactive are the calls of the source. Cut-off read from the data, not from the text of the source: active = GI50 up to about 1.1 µM and inactive = higher.
Bench note: report the call from true = active, false = inactive

INPUT: Test call, this compound: COc1cc(C2CC(C)(Nc3ccccc3)Oc3cc4c(cc32)OCO4)cc(OC)c1OC (centres undefined)
OUTPUT: false

INPUT: Test call, this compound: "O=C(Nc1sccc1S(=O)(=O)c1ccc(Cl)cc1)c1ccccc1"
OUTPUT: false

INPUT: Test call, this compound: CS/C(=N\C#N)NC1CC(n2cc(C)c(=O)[nH]c2=O)OC1CO (centres undefined)
OUTPUT: false

====

# Test system: SW-620
# method: NCI tumour cell line growth inhibition, 48 h
Activity calls are given as the source filed them. Cut-off read from the data, not from the text of the source: active = GI50 up to about 1.1 µM and inactive = higher.
Task for the reader: assign each of the following compounds its reported GI50.

compound | GI50
Cc1c2c(n3c(nc4ccccc43)c1C#N)N(c1ccc(F)cc1)CC2 | > 100 µM (inactive)
COc1cc(C2C(Cl)C(=O)N2n2cnc3ccccc3c2=O)cc(OC)c1OC (stereo unspecified) | 60.3 µM (inactive)
C=CCc1cccc2cc(C(=O)NCc3ccccc3)c(=N)oc12 | 49.4 µM (inactive)
Fc1ccc(F)c(C2SCc3nc4ccccc4n32)c1 (stereo unspecified) | > 100 µM (inactive)
CC1(C)C=C(/C=N/Nc2ccccc2)C(C#N)=C(O)C1(C#N)C#N | > 100 µM (inactive)

The compound listed as CC(C(=O)O)/C(=C\c1ccc2c(c1)OCO2)C(=O)O (stereo unspecified) has a reported GI50 of > 100 µM (inactive)
